protocol_notes: Determination of logD (1-octanol / phosphate buffer pH 7.4)
Assay type: physicochemical
conditions_used: 1-octanol/phosphate buffer, pH 7.4, pH 7.4, 1-octanol/phosphate buffer; read-out: Log D, pH 7.4
measured_attribute: logD

1) N#CC[C@H]1CN(c2nc(OC[C@@]34CCCN3C[C@H](F)C4)nc3c(F)c(-c4cccc(Cl)c4C(F)(F)F)ncc23)CCN1C(=O)/C=C/CN1CC[C@H](F)C1 [Compound 310] ... 3.13
2) N#CC[C@H]1CN(c2nc(OCC34CCCN3CCC4)nc3c2CCN(c2cccc4cccc(Cl)c24)C3)CCN1C(=O)/C=C/CN1CC(F)C1 [Compound 201] ... 2.76
3) CC(C)c1noc(/C=C/C(=O)N2CCN(c3nc(OC[C@@]45CCCN4C[C@H](F)C5)nc4c(F)c(-c5nc(N)cc6cccc(Cl)c56)ncc34)C[C@@H]2CC#N)n1 [Compound 122] ... 3.43
4) N#CC[C@H]1CN(c2nc(OCC34CCCN3CCC4)nc3c2CCN(c2cccc4cccc(Cl)c24)C3)CCN1C(=O)/C=C/CN1CCN(C2COC2)CC1 [Compound 317] ... 2.01
5) CN1CCC1/C=C/C(=O)N1CCN(c2nc(OC[C@@]34CCCN3C[C@H](F)C4)nc3c(F)c(-c4cccc5ccc(F)c(Cl)c45)ncc23)C[C@@H]1CC#N (some centres unmarked) [Compound 54] ... 2.59

###

target_or_test_system: KRAS G12C (GMPPNP-loaded) and cRAF (Ras-binding domain) interaction (Homo sapiens (Human), UniProt P01116, C118S/C51S/C80L/G12C)
Sequence (P01116 other isoform, or with tags, fused parts or gaps G12C/C51S/C80L/C118S): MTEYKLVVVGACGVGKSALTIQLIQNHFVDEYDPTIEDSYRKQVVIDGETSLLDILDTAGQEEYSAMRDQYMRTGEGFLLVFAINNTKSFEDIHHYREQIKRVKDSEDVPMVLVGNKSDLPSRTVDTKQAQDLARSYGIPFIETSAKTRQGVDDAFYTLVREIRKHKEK
protocol_notes: Inhibition of KRAS G12C and cRAF binding (AlphaScreen)
conditions_used: KRAS G12C loaded with GMPPNP, cRaf RBD, 2 hours preincubation; read-out: Raf-1 RBD K-Ras IC50
pIC50: −log10 of the molar value.
measured_attribute: pIC50

Examples from the recorded data:
1) Cc1nsc(/C=C/C(=O)N2CCN(c3nc(OCC45CCCN4CCC5)nc4c3CCN(c3cccc5ccc(F)c(Cl)c35)C4)C[C@@H]2CC#N)n1 [Compound 141] ... > 8.00
2) CN(C)C/C=C/C(=O)N1CCN(c2nc(OC[C@@]34CCCN3C[C@H](F)C4)nc3c(F)c(-c4cccc(Cl)c4C4CC4)ncc23)C[C@@H]1CC#N [Compound 115] ... 7.00 to 8.00
3) N#CC[C@H]1CN(c2nc(OC[C@@]34CCCN3C[C@H](F)C4)nc3c(F)c(-c4cccc5cccc(Cl)c45)ncc23)CCN1C(=O)/C=C/CN1C[C@@H]2C[C@H]1CO2 [Compound 180] ... > 8.00
4) Cc1noc(/C=C/C(=O)N2CCN(c3nc(OCC45CCCN4CCC5)nc4c3CCN(c3cccc5cccc(Cl)c35)C4)C[C@@H]2CC#N)n1 [Compound 32] ... 7.00 to 8.00
5) Cc1nccc(/C=C/C(=O)N2CCN(c3nc(OC[C@@]45CCCN4C[C@H](F)C5)nc4c3CCN(c3cccc5cccc(Cl)c35)C4)C[C@@H]2CC#N)n1 [Compound 123] ... > 8.00
6) N#CC[C@H]1CN(c2nc(OC[C@@]34CCCN3C[C@H](O)C4)nc3c2CCN(c2cccc4cccc(Cl)c24)C3)CCN1C(=O)/C=C/CN1CCOCC1 [Compound 316] ... > 8.00
7) N#CC[C@H]1CN(c2nc(OCC34CCCN3CCC4)nc3c2CCN(c2cccc4cccc(Cl)c24)C3)CCN1C(=O)/C=C/CN1CCOC2CC21 (some centres unmarked) [Compound 164] ... 7.00 to 8.00
8) CC1(c2noc(/C=C/C(=O)N3CCN(c4nc(OC[C@@]56CCCN5C[C@H](F)C6)nc5c(F)c(-c6cccc7cccc(Cl)c67)ncc45)C[C@@H]3CC#N)n2)CC1 [Compound 47] ... 6.30 to 7.00
9) N#CC[C@H]1CN(c2nc(OC[C@@]34CCCN3C[C@H](F)C4)nc3c(F)c(-c4cccc(Cl)c4C(F)(F)F)ncc23)CCN1C(=O)/C=C/CN1CCCOCC1 [Compound 113] ... > 8.00
10) N#CC[C@H]1CN(c2nc(OC[C@@]34CCCN3C[C@H](F)C4)nc3c(F)c(-c4cccc5cccc(F)c45)ncc23)CCN1C(=O)/C=C/CN1CC2CC(C1)O2 [Compound 237] ... > 8.00

Query compound follows.
Memo: CC1(c2noc(/C=C/C(=O)N3CCN(c4nc(OCC56CCCN5CCC6)nc5c(F)c(-c6cccc7cccc(Cl)c67)ncc45)C[C@@H]3CC#N)n2)CC1 [Compound 118] , reported pIC50: 6.30 to 7.00
